Tested on: MDA-MB-435
Classes used: active, inactive

[[record]]
molecule = "O=[N+]([O-])c1ccc(Sc2ncccn2)c([N+](=O)[O-])c1"
cat = "inactive"

[[record]]
molecule = "COc1cc2c(cc1OC)C(=O)C(Br)CC2 (stereo not given)"
cat = "inactive"

[[record]]
molecule = "CCCCCCCCCCCCCCCCCCNC(=O)[C@H]1CSC(c2ccc(OC)c(F)c2)N1 (stereo not given in full)"
cat = "inactive"

[[record]]
molecule = "O=C1c2cc3c(cc2-c2c1c1cc(Cl)c(Cl)cc1c(=O)n2CCCn1ccnc1)OCO3"
cat = "active"

[[record]]
molecule = "COc1cc2c3c(n(C)c(=O)c2cc1OC)-c1cc2c(cc1/C3=C\\CCCCN)OCO2"
cat = "inactive"

[[record]]
molecule = "COc1ccc(N(C)c2nc(C)nc3ccccc23)cc1"
cat = "active"

[[record]]
molecule = "O=C(c1ccccc1)c1nn(-c2ccc(Cl)cc2)c2nc3nc(-c4ccccc4)cc(=O)n3nc12"
cat = "inactive"

[[record]]
molecule = "COc1ccc(/C=C2\\CN(C(=O)CCN3CCC(=NO)CC3)C/C(=C\\c3ccc(OC)cc3)C2=O)cc1"
cat = "inactive"

[[record]]
molecule = "Cc1cc(NC(=O)C2c3ccccc3C(=O)N(CC(C)C)C2c2cccs2)no1 (stereo not given)"
cat = "inactive"

[[record]]
molecule = "C[C@@H](c1ccc2nccn2c1)n1nnc2ncc(-c3cnn(C)c3)nc21"
cat = "inactive"


meta.source: PubChem BioAssay (NCI)
